# Procedure text: NOD1 signaling inhibitors, primary screen, cell-based, luminescence, uHTS (AID 1578);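 also: HEK-293T reporter cells stimulated with the NOD1 agonist gamma-tri-DAP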
# Condition context: NOD1-driven NF-kB luciferase reporter cells, at 4 µM, stronger effect = higher value
About 3,000 (1%) of roughly 290,000 compounds were called active. The full list was thinned out, with actives kept by preference.
The following compounds are shown together with reported inhibition values.
Use % as the unit, but write only the number.

Compound	inhibition / %
CC(C)C(=O)Nc1cccc(C(=O)Nc2ccccc2C(=O)O)c1	-0.4
c1ccc(C2[C@H]3CN(Cc4cccnc4)[C@H](c4ccccc4)C34CC2(c2ccccc2)C4)cc1 (stereo partly drawn)	-5.1
CCCOc1ccc(OCCCCNC(C)CC)cc1 (stereo not drawn)	0.5
Cn1nnc2cc(NC(=O)Nc3cccc(C(F)(F)F)c3)ccc21	-5.1
Cc1ccc(NC(=O)c2ccc(OC(=O)C(C)Oc3ccc(Cl)cc3C)cc2)cc1 (stereo not drawn)	-12.4
Cc1cc(Cl)ccc1OC(C)C(=O)Nc1ccc(C(=O)Nc2ccccc2C(=O)O)cc1 (stereo not drawn)	82.7

Give the measured inhibition of CSc1ccccc1OCc1cc(C(=O)N2CCC(Oc3cccnc3)CC2)no1 .
-30.2

Give the measured inhibition of CCc1ccccc1NC(=O)Nc1ccc(F)cc1 .
-25.3

Give the measured inhibition of O=C(O)c1cc(-c2ccco2)nc2cc3ccccc3cc12 .
-6.3

----------
# Procedure text: NOD1 signaling inhibitors, primary screen, cell-based, luminescence, uHTS (AID 1578);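 also: HEK-293T reporter cells stimulated with the NOD1 agonist gamma-tri-DAP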
# Condition context: NOD1-driven NF-kB luciferase reporter cells, at 4 µM
The whole screen tested about 290,000 compounds, of which about 3,000 (1%) were called active. Rule as the data show it: active = inhibition mostly above about 36% (no sharp cut-off); inactive = mostly below about 34%. The full list was thinned out, with actives kept by preference.
Bench note: report the call from 1 (yes) = active, 0 (no) = inactive

Answered examples (3):
Molecule	Category
CC(C)(C)c1ccc(C(=O)n2cnc3ccccc32)cc1	0 (no)
CCc1ccccc1NCC(=O)Nc1ccc(Cl)c(C(F)(F)F)c1	0 (no)
c1ccc(Cc2nnc(Sc3ccccc3)c3ccccc23)cc1	0 (no)

In this assay, the call recorded for Nc1nc(Nc2ccccc2)nc2ccccc12 was what?
0 (no)

In this assay, the call recorded for COc1ccc(Sc2nnc(Cc3ccccc3)c3ccccc23)cc1 was what?
0 (no)

In this assay, the call recorded for O=C(Nc1nccs1)c1ccc(N2CCOCC2)c([N+](=O)[O-])c1 was what?
0 (no)

In this assay, the call recorded for CCc1ccc(NC(=O)c2cc(CC(C)C)on2)cc1 was what?
0 (no)

In this assay, the call recorded for Cc1nn(Cc2c(Cl)cccc2Cl)c(C)c1NC(=O)/C=C/c1cnn(C)c1C was what?
1 (yes)

In this assay, the call recorded for CCOc1ccc(NC(=O)C2CC(=O)N(C)C(=Nc3ccc4c(c3)OCO4)S2)cc1 (centres undefined) was what?
0 (no)

In this assay, the call recorded for COc1ccc(-c2csc(N3CCN(c4cc(C)nc5ccccc45)CC3)n2)cc1OC was what?
1 (yes)

In this assay, the call recorded for N#Cc1c(Sc2ncc(C(F)(F)F)cc2Cl)nsc1C/C=N\OCc1c(F)cccc1Cl was what?
0 (no)

In this assay, the call recorded for O=C(O)CSCC(=O)N1CCN(S(=O)(=O)c2ccccc2)CC1 was what?
0 (no)

In this assay, the call recorded for COc1ccc(OCC(=O)N/N=c2\oc3c(OC)cccc3cc2C(N)=O)cc1 was what?
0 (no)

In this assay, the call recorded for N#Cc1ccc(C(=O)NCC2CCCCC2)cc1 was what?
0 (no)

In this assay, the call recorded for CCc1ccc(C(=O)COC(=O)C(CCSC)NC(=O)c2ccccc2)cc1 (centres undefined) was what?
0 (no)

In this assay, the call recorded for C=C(C)Cc1c(C)c(C#N)c2[nH]c3ccccc3n2c1=O was what?
0 (no)
